Record form. Attribute: pIC50. Fill in for each entry.
Target: human TLR7 (Homo sapiens)
Sequence (Q9NYK1 27-1049): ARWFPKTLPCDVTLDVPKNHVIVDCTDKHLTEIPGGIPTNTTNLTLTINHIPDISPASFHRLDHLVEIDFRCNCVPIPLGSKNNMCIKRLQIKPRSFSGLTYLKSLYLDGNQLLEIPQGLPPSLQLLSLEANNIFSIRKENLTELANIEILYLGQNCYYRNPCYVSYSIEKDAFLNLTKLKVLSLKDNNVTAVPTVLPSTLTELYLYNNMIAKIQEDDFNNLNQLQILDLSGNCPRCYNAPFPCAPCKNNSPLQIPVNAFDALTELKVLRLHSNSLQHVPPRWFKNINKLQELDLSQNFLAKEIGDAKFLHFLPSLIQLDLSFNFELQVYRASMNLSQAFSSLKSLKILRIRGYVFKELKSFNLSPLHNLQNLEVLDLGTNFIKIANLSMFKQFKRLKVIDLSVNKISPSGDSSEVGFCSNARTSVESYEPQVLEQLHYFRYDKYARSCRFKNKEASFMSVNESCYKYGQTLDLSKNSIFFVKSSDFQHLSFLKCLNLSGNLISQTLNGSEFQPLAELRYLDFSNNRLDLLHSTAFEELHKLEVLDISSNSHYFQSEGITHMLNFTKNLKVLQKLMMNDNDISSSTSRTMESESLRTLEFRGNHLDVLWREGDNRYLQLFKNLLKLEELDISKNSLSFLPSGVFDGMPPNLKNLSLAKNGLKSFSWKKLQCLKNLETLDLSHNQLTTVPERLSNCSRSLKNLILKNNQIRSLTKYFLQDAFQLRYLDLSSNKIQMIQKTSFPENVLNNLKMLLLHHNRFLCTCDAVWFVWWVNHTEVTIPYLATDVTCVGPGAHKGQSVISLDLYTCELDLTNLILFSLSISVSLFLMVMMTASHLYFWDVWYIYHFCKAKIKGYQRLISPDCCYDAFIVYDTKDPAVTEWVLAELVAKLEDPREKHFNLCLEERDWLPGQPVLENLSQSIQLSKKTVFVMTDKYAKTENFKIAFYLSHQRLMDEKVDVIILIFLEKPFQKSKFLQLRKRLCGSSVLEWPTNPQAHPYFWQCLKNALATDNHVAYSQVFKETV
Assay: HEK293-Blue-hTLR-7 cells assay (SEAP reporter, R848 stimulation)
Conditions: HEK293-Blue-hTLR7 cells, R848 ligand, 20 hrs incubation
Quick note: pIC50 means taking -log10 of the concentration in moles per liter.

For the compound N#Cc1ccc(N2CC(CN3C4CCC3CC(N)C4)C3(CC3)C2)c2nccnc12 (stereo not drawn) , report pIC50.
6.51

Output pIC50 of N#Cc1ccc(N2C[C@H](CN3CCC4(CCNCC4)C3)[C@@H](C(F)(F)F)C2)c2nccnc12
7.03

Quote pIC50 reported for N#Cc1ccc(N2C[C@H](CN3C4CCC3CC(N)C4)[C@@H](C(F)(F)F)C2)c2nccnc12 (stereo partly drawn) please.
7.24
